These data points were gathered from the supplement of paper PMC11616607.

system: COV318; test: drug sensitivity score (DSS) from 5-point dose-response viability curve (DSS (area-under-curve based score)); higher = more sensitive (stronger growth inhibition or killing); extreme values may be limits of the assay; details: exposure time: 72 h; concentration range: 5 concentrations over 10,000-fold range
quantity_measured: drug sensitivity score

Before answering, review these 6 worked examples.
| chemical_structure | drug sensitivity score |
| --- | --- |
| COc1cccc2c1c(O)c(C(=O)N(C)c1ccc(C(F)(F)F)cc1)c(=O)n2C | 0 |
| CC1(C)CCC(c2ccc(Cl)cc2)=C(CN2CCN(c3ccc(C(=O)NS(=O)(=O)c4ccc(N[C@H](CCN5CCOCC5)CSc5ccccc5)c(S(=O)(=O)C(F)(F)F)c4)cc3)CC2)C1 | 0 |
| Cc1ccc(NS(=O)(=O)c2cccc(C#N)c2)c2[nH]cc(C#N)c12 | 2.8 |
| CS(=O)(=O)c1ccc(-c2cnc(N)c(C(=O)Nc3ccccc3)n2)cc1 | 0 |
| CN1CCN(CCOc2cc(OC3CCOCC3)c3c(Nc4c(Cl)ccc5c4OCO5)ncnc3c2)CC1 | 0.4 |
| O=C(Nc1cc(Cl)cc2c1[nH]c1cnccc12)c1cccnc1 | 0 |

Now for a further compound.
Recorded drug sensitivity score (compound "CNC(=O)c1ccccc1Nc1cc(Nc2ccc(N3CCOCC3)cc2OC)ncc1C(F)(F)F" ): 5.6

---

test system: Ovsaho; assay: drug sensitivity score (DSS) from 5-point dose-response viability curve (DSS (area-under-curve based score)); higher = more sensitive (stronger growth inhibition or killing); extreme values may be limits of the assay; conditions: exposure time: 72 h; concentration range: 5 concentrations over 10,000-fold range
quantity_measured: drug sensitivity score
Please reply with the number alone, leaving off any unit.

Before answering, review these 3 worked examples.
| compound | drug sensitivity score |
| --- | --- |
| NC(=O)c1cccc(-c2cccc(OC(=O)NC3CCCCC3)c2)c1 [URB597] | 0 |
| COc1cc(OC)cc(N(CCNC(C)C)c2ccc3ncc(-c4cnn(C)c4)nc3c2)c1 [Erdafitinib] | 0 |
| Nc1nc2[nH]cc(CCc3ccc(C(=O)N[C@@H](CCC(=O)O)C(=O)O)cc3)c2c(=O)[nH]1 [Pemetrexed] | 6.1 |

Continue with the compound presented below.
Please fill in: drug sensitivity score reported for COc1cc2c(NC3CCN(C(C)C)CC3)nc(N3CCC(F)(F)CC3)nc2cc1OCCCN1CCCC1 [UNC0642] = 0

---

system: OV90; test: drug sensitivity score (DSS) from 5-point dose-response viability curve (DSS (area-under-curve based score)); higher = more sensitive (stronger growth inhibition or killing); extreme values may be limits of the assay; conditions: exposure time: 72 h; concentration range: 5 concentrations over 10,000-fold range
compounds and their reported drug sensitivity score
Kindly provide the number alone.

// known answers, use as guide
| compound | drug sensitivity score |
| --- | --- |
| COc1cc(N2CCC(N3CCN(C)CC3)CC2)ccc1Nc1ncnc(Nc2ccccc2S(=O)(=O)C(C)C)n1 | 5.2 |
| CNC(=O)c1cccc(-c2ccc3c(N4CCOC[C@@H]4C)nc(N4CCOC[C@@H]4C)nc3n2)c1 | 15.1 |
| CC(C)C(=O)Nc1ccc([N+](=O)[O-])c(C(F)(F)F)c1 [Flutamide] | 0 |
| C[C@@H]1CCN(C(=O)CC#N)C[C@@H]1N(C)c1ncnc2[nH]ccc12 | 0.3 |
| COc1cc(C)c(/C=C/C(C)=C/C=C/C(C)=C/C(=O)O)c(C)c1C | 0.2 |
| Cn1nccc1Nc1nccc(-c2ccn([C@H](CO)c3ccc(Cl)c(F)c3)c(=O)c2)n1 | 13.6 |
| Cc1c(Cn2c(C)nc3c(C(=O)O)cc(N4CCOCC4)cc32)cccc1C(F)(F)F | 0 |
| Nc1nc2[nH]cc(CCc3ccc(C(=O)N[C@@H](CCC(=O)O)C(=O)O)cc3)c2c(=O)[nH]1 | 3.7 |
| C[C@H](Nc1ncnc2[nH]cnc12)c1cc2ccc(F)cc2nc1-c1ccccn1 | 0 |
| Nc1ncnc2c1c(COc1cccc(Cl)c1)nn2C1CCOCC1 | 0 |

Readout drug sensitivity score for "CC(=O)O[C@@]12CO[C@@H]1C[C@H](O)[C@@]1(C)C(=O)[C@H](O)C3=C(C)[C@@H](OC(=O)[C@H](O)[C@@H](NC(=O)OC(C)(C)C)c4ccccc4)C[C@@](O)([C@@H](OC(=O)c4ccccc4)[C@H]21)C3(C)C" , test system OV90, was 15.5

Measured on OV90, O=C(/C=C\n1cnc(-c2cc(C(F)(F)F)cc(C(F)(F)F)c2)n1)NNc1ccccn1 [Verdinexor] has a documented drug sensitivity score of 5.1

Summary: "C=C(c1ccc(C(=O)O)cc1)c1cc2c(cc1C)C(C)(C)CCC2(C)C" , OV90, drug sensitivity score = 1.3

Sample "Cc1ncc(-c2ccnc(Nc3ccc(S(C)(=O)=O)cc3)n2)n1C(C)C" , system: OV90. Its drug sensitivity score is 4.4
